- System: SF-268
- protocolSummary: NCI tumour cell line growth inhibition, 48 h
Active and inactive are the calls of the source. Cut-off read from the data, not from the text of the source: active = GI50 up to about 1.1 µM and inactive = higher.
Pick one: TRUE for active, FALSE for inactive

// param item: C[n+]1c2ccccc2c(/C=N\NS(=O)(=O)c2ccc(O)c(C(=O)O)c2)c2ccccc21 ; yields the recorded call FALSE

// param item: CC1=NN(c2ccc(C)cc2)C2(C1)SCC(=O)N2c1nc2ccccc2s1 (centres undefined) ; yields the recorded call FALSE

// param item: CC1CC(N)=C(C#N)C1(C#N)C#N (centres undefined) ; yields the recorded call FALSE

// param item: CC(=O)NC1C(OCc2ccccc2)OC(COC(=O)CCCCCCCCCCNC(=O)c2cccc3c(=O)c4ccccc4[nH]c23)C(O)C1OC(C)C(=O)NC(C)C(=O)NC(CCC(N)=O)C(N)=O (centres undefined) ; yields the recorded call FALSE

// param item: COc1ccc(C(=O)CC(c2ccccc2)[C@H]2C(c3ccc(OC)cc3)=Nc3c(nc(SC)n(C)c3=O)NC2c2ccccc2)cc1 (some centres undefined) ; yields the recorded call FALSE

// param item: COc1ccc2nc3cc([N+](=O)[O-])ccc3c(NNc3ccc(Cl)cc3)c2c1 ; yields the recorded call FALSE

// param item: NC1=C(c2nc(-c3ccccc3)cs2)C(c2ccco2)c2c(c3ccccc3oc2=O)O1 (centres undefined) ; yields the recorded call FALSE

// param item: COc1ccc(-c2cc(-c3cc(F)c(Cl)cc3Cl)[nH]n2)cc1OC ; yields the recorded call FALSE

// param item: CCOC(OC1=C(C#N)CCCC1)C(C)[Se]c1ccccc1 (centres undefined) ; yields the recorded call FALSE

// param item: CC(C(=O)NCNC(=O)c1ccccc1)C(=O)Nc1ccccc1 (centres undefined) ; yields the recorded call FALSE

// param item: COC(=O)Cc1ccc(Oc2nc3ccccc3nc2-c2cccs2)cc1 ; yields the recorded call FALSE

// param item: Cc1cc2c([nH]c3ccccc32)c2c1OC(C)(C)C1C3CC(C)(C)Oc4c(C)cc5c6ccccc6n(c5c43)C21 (centres undefined) ; yields the recorded call FALSE

// param item: O=C(O)Cn1ncn(NC(=O)Cc2ccccc2)c1=S ; yields the recorded call FALSE

// param item: COc1ccc2cc1Oc1ccc(cc1)C[C@@H]1c3cc(c(OC)cc3CCN1C)Oc1c(OC)c(OC)cc3c1[C@@H](C2)N(C)CC3 [PHAEANTHINE] ; yields the recorded call FALSE

// param item: Cc1cc(C)c(-c2no/c(=N\S(=O)(=O)c3ccc(Cl)cc3)o2)c(C)c1 ; yields the recorded call FALSE

// param item: CNc1nnnn1C1OC(CO)C(O)C1O (centres undefined) ; yields the recorded call FALSE

// param item: CC(C)n1c2c([n+](C)c1/C=C/c1ccccc1)C(=O)c1ccccc1C2=O ; yields the recorded call TRUE

// param item: O=c1[nH]c2ccc(C(F)(F)F)cc2nc1Cc1ccccc1 ; yields the recorded call FALSE

// param item: O=[N+]([O-])c1ccc(OCc2nnc(CCCCCCCCc3nnc(COc4ccc([N+](=O)[O-])cc4)o3)o2)cc1 ; yields the recorded call FALSE

###

- System: OVCAR-5
- protocolSummary: NCI tumour cell line growth inhibition, 48 h
Active and inactive are the calls of the source. No stated cut-off is given here; in the data, active = GI50 up to about 1.1 µM and inactive = higher. Square brackets hold non-standard residues; d marks the D form. Peptide text beside a SMILES is read from it. * marks the point of attachment. Bn2Val = CC(C)[C@@H](C(=O)*)N(Cc1ccccc1)Cc1ccccc1; NH(3,4-diMeO-benzyl) = COc1ccc(CN*)cc1OC; NMeV = CN[C@H](C(=O)O)C(C)C; dNMeA = CN[C@H](C)C(=O)O
observable: GI50

molecule O=c1c(Br)cc2c(-c3ccccc3)c3cc(Br)c(O)c(Br)c3oc-2c1Br , GI50 observed: > 100 µM (inactive)

molecule COc1ccc(CNC(=O)[C@@H](C)N(C)C(=O)[C@@H]2CCCN2C(=O)[C@H](C(C)C)N(C)C(=O)[C@@H](NC(=O)[C@H](C(C)C)N(Cc2ccccc2)Cc2ccccc2)C(C)C)cc1OC (Bn2Val-V[NMeV]P[dNMeA]-{NH(3,4-diMeO-benzyl)}) , GI50 observed: 8.2 µM (inactive)

molecule c1cncc(O[Si](Oc2cccnc2)(Oc2cccnc2)Oc2cccnc2)c1 , GI50 observed: > 100 µM (inactive)

molecule Cc1nn2c(=O)c([N+](=O)[O-])c(/C=C/c3ccccc3)nc2s1 , GI50 observed: 4.68 µM (inactive)

molecule CCOC(=O)C(=Cc1cccnc1C)C(=O)OCC , GI50 observed: 17.9 µM (inactive)

molecule CCCCCC(C)SC1(C(=O)OC)CC(OC(C)=O)C(NC(C)=O)C([C@H](OC(C)=O)[C@@H](COC(C)=O)OC(C)=O)O1 (some centres undefined) , GI50 observed: > 100 µM (inactive)

molecule Cc1cccc(CC(Cc2ccc(C)cc2C(=O)O)C(=O)O)c1 (centres undefined) , GI50 observed: > 100 µM (inactive)

molecule COC1(CC[C@@H](C)COC2OC(CO)C(O)C(O)C2O)O[C@H]2C[C@H]3[C@@H]4CC=C5C[C@@H](OC6OC(CO)C(O)C(OC7OC(CO)C(O)C(O)C7O)C6OC6OC(C)C(O)C(O)C6O)CC[C@]5(C)[C@H]4CC[C@]3(C)[C@H]2[C@@H]1C (some centres undefined) , GI50 observed: 7.67 µM (inactive)

molecule O=C(O)CCCC#CCCCC(=O)O , GI50 observed: > 100 µM (inactive)

###

- Tested on: NCI-H522
- protocolSummary: NCI tumour cell line growth inhibition, 48 h
Active and inactive are the calls of the source. No stated cut-off is given here; in the data, active = GI50 up to about 1.1 µM and inactive = higher.
Pick one: active, inactive

// param item: ClC1(c2ccccc2)c2ccc(Br)cc2-c2cc(Br)ccc21 ; yields the recorded call inactive

// param item: C=CC1ON(Cc2ccccc2)CCc2cc(OC)c(OC)cc21 (stereo not drawn) ; yields the recorded call inactive

// param item: COC(=O)Cc1ccc(Oc2nc3ccccc3nc2-c2cccs2)cc1 ; yields the recorded call inactive

// param item: CC/C(=C\c1ccc(Cl)c(Cl)c1)[N+](=O)[O-] ; yields the recorded call inactive

// param item: CC(C)=CC(=O)N(C)C1C2CN3CCC(O2)C13 (stereo not drawn) ; yields the recorded call inactive

// param item: Cc1ccc(NC(=O)OCC(COc2ccc(Cl)cc2)OC(=O)Nc2ccc(C)cc2)cc1 (stereo not drawn) ; yields the recorded call inactive

// param item: COc1ccc(CCN2COc3ccc4ccc(=O)oc4c3C2)cc1OC ; yields the recorded call inactive

// param item: O=C(NCCC1CN(S(=O)(=O)C(F)(F)F)c2ccccc21)OCc1ccccc1 (stereo not drawn) ; yields the recorded call inactive

// param item: CC[C@@H]1/C=C/C=C/C[C@H](C)[C@@H](O)[C@](C)(O)C(=O)[C@H](C)[C@@H](O)[C@H](C)C(=O)[C@H](C)[C@@H](O)[C@H](C)/C=C/C(=O)O[C@H]2[C@@H](C)[C@@H](CC1)O[C@@]1(CC[C@@H](C)[C@@H](CC(C)O)O1)[C@@H]2C (stereo partly drawn) ; yields the recorded call active

// param item: Cn1c(=O)c(-c2ccccc2)c(N=[N+]=[N-])c2ccccc21 ; yields the recorded call inactive

// param item: O=C(CN(c1ccc(S(=O)(=O)O)cc1)c1ccc(S(=O)(=O)O)cc1)Nn1cnc2ccc(S(=O)(=O)N(c3ccc(S(=O)(=O)O)cc3)c3ccc(S(=O)(=O)O)cc3)cc2c1=O ; yields the recorded call inactive

// param item: CC1C2Cc3ccc(O)cc3C1(C)CCN2C (stereo not drawn) ; yields the recorded call inactive

// param item: C1CSCCSCSCCS1 ; yields the recorded call inactive

// param item: Nc1c2cc3ccc2nc2ccc(cc12)OCCOCCOCCOCCOCCOCCO3 ; yields the recorded call inactive

// param item: CN(C)C=O.O=C(Nc1nnn[nH]1)c1nc(O)cc(-c2ccccc2)n1 ; yields the recorded call inactive

// param item: O=C(O)C1C2C=CC(O2)C1C(=O)NCc1ccncc1 (stereo not drawn) ; yields the recorded call inactive

// param item: O=[N+]([O-])c1ccc2nc(/C(=N/Nc3ccccc3)C(O)c3ccc(Cl)cc3Cl)c(O)nc2c1 (stereo not drawn) ; yields the recorded call inactive

// param item: O=c1c2ccccc2nc(-c2ccccc2)n1NC(=S)Nc1ccc(Cl)cc1 ; yields the recorded call inactive

// param item: O=C(Cc1nccc2c1[nH]c1ccccc12)OC1C#CCSCC#C/C=C\1 (stereo not drawn) ; yields the recorded call inactive

// param item: CC(C)(C)c1cc2c(OC/C=C/c3ccccc3)c(c1)Cc1cc(C(C#N)(OC/C=C/c3ccccc3)OC/C=C/c3ccccc3)cc(c1OC/C=C\c1ccccc1)Cc1cc(C(C)(C)C)cc(c1OC/C=C/c1ccccc1)Cc1cc(C(C#N)(OC/C=C\c3ccccc3)OC/C=C/c3ccccc3)cc(c1OC/C=C\c1ccccc1)C2 (stereo not drawn) ; yields the recorded call inactive

// param item: COC(=O)[C@H]1[C@H]2C[C@@H]3c4[nH]c5cc(OC)ccc5c4CCN3C[C@H]2C[C@@H](OC(=O)c2cc(OC)c(OC)c(OC)c2)[C@@H]1OC ; yields the recorded call inactive

// param item: CNC(=O)ON(C(C)=O)C(=O)NC [CARACEMIDE] ; yields the recorded call inactive

// param item: O=C(N/N=C\c1ccc(Cl)cc1)Nc1cccc2ccccc12 ; yields the recorded call inactive

// param item: COC1(CC[C@@H](C)COC2OC(CO)C(O)C(O)C2O)O[C@H]2C[C@H]3[C@@H]4CC=C5C[C@@H](OC6OC(CO)C(O)C(OC7OC(CO)C(O)C(O)C7O)C6OC6OC(C)C(O)C(O)C6O)CC[C@]5(C)[C@H]4CC[C@]3(C)[C@H]2[C@@H]1C (stereo partly drawn) ; yields the recorded call inactive

// param item: [O-][S+](CCc1ccccc1)Nc1ccccc1 (stereo not drawn) ; yields the recorded call inactive

// param item: Clc1ccc(-c2ccc(-c3nnc(COc4ccc(OCc5nnc(-c6ccc(-c7ccc(Cl)cc7Cl)o6)o5)c(Cl)c4)o3)o2)c(Cl)c1 ; yields the recorded call inactive

// param item: CC[S+](C)c1ccc(-c2c3nc(c(-c4ccc([S+](C)CC)cc4)c4ccc([nH]4)c(-c4ccc([S+](C)CC)cc4)c4nc(c(-c5ccc([S+](C)CC)cc5)c5ccc2[nH]5)C=C4)C=C3)cc1.[O-][Cl+3]([O-])([O-])[O-].[O-][Cl+3]([O-])([O-])[O-].[O-][Cl+3]([O-])([O-])[O-].[O-][Cl+3]([O-])([O-])[O-] (stereo not drawn) ; yields the recorded call inactive

// param item: COc1ccc2cc1Oc1ccc(cc1)C[C@@H]1c3cc(c(OC)cc3CCN1C)Oc1c(OC)c(OC)cc3c1[C@@H](C2)N(C)CC3 ; yields the recorded call inactive

// param item: COC(=O)/N=[N+](\[O-])C(c1ccc(OC)cc1)C1CCCCC1 (stereo not drawn) ; yields the recorded call active

// param item: O=[N+]([O-])c1ccc(OCc2nnc(CCCCCCCCc3nnc(COc4ccc([N+](=O)[O-])cc4)o3)o2)cc1 ; yields the recorded call inactive

// param item: O=S1(=O)OCCCOS(=O)(=O)C1(Br)Br ; yields the recorded call inactive

// param item: COc1ccc(-c2nc3ccc([N+](=O)[O-])cc3c(=O)[nH]2)cc1 ; yields the recorded call inactive

// param item: CC(C)(C)OC(=O)N1C(OP(=O)(Oc2ccccc2)Oc2ccccc2)=COc2cccnc21 ; yields the recorded call inactive

Numbers sourced from ChEMBL document CHEMBL1201862.
